From: the kinase profiling compilation of Christmann-Franck et al. (2016)

- SUBJECT OF TEST: SLK (human) (UniProt Q9H2G2)
- Sequence (Q9H2G2 whole entry, looked up): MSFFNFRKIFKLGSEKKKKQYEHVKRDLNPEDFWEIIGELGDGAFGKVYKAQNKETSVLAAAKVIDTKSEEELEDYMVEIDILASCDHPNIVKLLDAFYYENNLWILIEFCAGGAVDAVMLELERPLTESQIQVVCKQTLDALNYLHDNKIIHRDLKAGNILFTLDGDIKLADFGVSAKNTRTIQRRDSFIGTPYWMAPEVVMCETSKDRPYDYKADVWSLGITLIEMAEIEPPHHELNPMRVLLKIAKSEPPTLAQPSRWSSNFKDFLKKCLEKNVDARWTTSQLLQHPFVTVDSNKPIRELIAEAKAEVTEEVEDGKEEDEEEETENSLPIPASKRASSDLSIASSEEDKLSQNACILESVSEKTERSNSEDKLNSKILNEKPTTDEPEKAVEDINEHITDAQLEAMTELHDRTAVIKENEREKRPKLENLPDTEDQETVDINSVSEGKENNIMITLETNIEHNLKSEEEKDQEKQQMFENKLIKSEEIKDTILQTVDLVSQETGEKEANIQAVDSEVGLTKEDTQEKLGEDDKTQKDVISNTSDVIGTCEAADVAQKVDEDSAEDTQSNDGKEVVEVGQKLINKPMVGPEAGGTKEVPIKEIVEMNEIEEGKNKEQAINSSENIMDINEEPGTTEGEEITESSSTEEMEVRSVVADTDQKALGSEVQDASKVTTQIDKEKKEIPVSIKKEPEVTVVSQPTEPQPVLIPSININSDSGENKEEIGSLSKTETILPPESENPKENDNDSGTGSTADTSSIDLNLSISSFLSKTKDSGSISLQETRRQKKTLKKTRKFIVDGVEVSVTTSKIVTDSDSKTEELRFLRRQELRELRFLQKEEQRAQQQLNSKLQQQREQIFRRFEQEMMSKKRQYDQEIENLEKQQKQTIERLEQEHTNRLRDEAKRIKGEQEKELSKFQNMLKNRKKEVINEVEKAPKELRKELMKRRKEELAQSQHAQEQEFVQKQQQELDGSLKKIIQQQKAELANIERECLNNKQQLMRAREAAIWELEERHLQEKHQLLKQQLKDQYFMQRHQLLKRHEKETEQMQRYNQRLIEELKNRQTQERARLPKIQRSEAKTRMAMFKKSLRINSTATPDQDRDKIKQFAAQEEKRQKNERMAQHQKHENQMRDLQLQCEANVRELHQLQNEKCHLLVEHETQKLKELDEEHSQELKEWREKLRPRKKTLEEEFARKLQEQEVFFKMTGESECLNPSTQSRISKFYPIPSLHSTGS
- EXPERIMENTAL PROTOCOL: KINOMEscan competition binding
- CONDITION DESCRIPTION: compound 10.0 µM
PROPERTY: kinase still bound, per cent of control (%)
Give the value in % but do not write % after it.

Worked cases, answers included:
| COMPOUND | UNIT STRING | kinase still bound, per cent of control |
| --- | --- | --- |
| COc1cc(C(=O)NC2CCN(C)CC2)ccc1Nc1ncc2c(n1)N(C1CCC(O)CC1)CCC(=O)N2C (centres undefined) | % | 20 |
| COc1cc(C(=O)NC2CCN(C)CC2)ccc1Nc1ncc2c(n1)N(C1CCCC1)CCC(=O)N2C | % | 12 |
| COc1cc(N2CCC(N3CCN(C)CC3)CC2)ccc1Nc1ncc2c(n1)N(C1CCCC1)C(C)CC(=O)N2 (centres undefined) | % | 7.2 |
| COc1cc(N2CCN(C)CC2)ccc1Nc1ncc2c(n1)N(C1CCCC1)C(C)CC(=O)N2 (centres undefined) | % | 3.2 |
| COc1cc(N2CCN(C)CC2)ccc1Nc1ncc2c(n1)Nc1ccccc1NC2=O | % | 100 |
| COc1cc(N2CCC(N3CCN(C)CC3)CC2)ccc1Nc1ncc2c(n1)N(C1CCCC1)C(C)CC(=O)N2C (centres undefined) | % | 5.6 |

What the record says about CS(=O)(=O)Nc1ccc(-c2cncc(/C=C3\SC(=N)NC3=O)c2)cc1 : kinase still bound, per cent of control is 2.8

The reported kinase still bound, per cent of control of the compound COc1cc(C(=O)NC2CCN(C)CC2)ccc1Nc1ncc2c(n1)N(C1CCCC1)C(C)CC(=O)N2C (centres undefined) was 1.4

// kinase still bound, per cent of control value for O=C1NC(=O)/C(=C/c2c[nH]c(=O)c(-c3ccc(N4CCNCC4)nc3)c2)S1 : 29

Measured kinase still bound, per cent of control, COc1cc(C(=O)NC2CCN(C)CC2)ccc1Nc1ncc2c(n1)N(CCc1ccccc1)CCC(=O)N2C : 22

According to the records, this compound CN1C(=O)[C@H]2CCC[C@H]2N(C2CCCC2)c2nc(Nc3ccc(C(N)=O)cc3)ncc21 displays kinase still bound, per cent of control of 3.4

kinase still bound, per cent of control for COc1cc(N2CCC(C)(O)CC2)ccc1Nc1ncc2c(n1)N(C1CCCC1)CCC(=O)N2C is 31

kinase still bound, per cent of control in this record for COc1cc(N2CCN(C)CC2)ccc1Nc1ncc2c(n1)N1CCC[C@H]1CC(=O)N2 : 31
